Where do the numbers come from? From patent US20200207857A1.

Target: Recombinant protein Claudin 18.2
Sequence (chain, as listed by the source limits assumed, form in doubt): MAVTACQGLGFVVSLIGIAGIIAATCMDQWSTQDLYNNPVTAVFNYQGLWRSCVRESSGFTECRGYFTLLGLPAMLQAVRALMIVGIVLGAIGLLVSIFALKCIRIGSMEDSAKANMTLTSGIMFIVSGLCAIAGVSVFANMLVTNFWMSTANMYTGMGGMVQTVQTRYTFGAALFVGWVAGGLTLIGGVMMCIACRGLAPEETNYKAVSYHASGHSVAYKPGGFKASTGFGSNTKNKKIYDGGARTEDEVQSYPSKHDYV
Test: ELISA-based assay on Claudin 18.2, y axis RLU; Kd table under the graph, no unit in the table, unit from the x axis log[antibody] nM
pKd: −log10 of the molar value.
READOUT_TYPE: pKd

1. h5C9oam (antibody, human IgG1, kappa, V domains shown) VH: EVQLVESGGGLVQPGGSLRLSCAVSGYTFSMNWVRQAPGKGLEWVAWINMYTGEPTYADDFKGRFTISRDDSKNTLYLQMNSLRAEDTAVYYCARLARGNSIDYWGQGTLVTVSS VL: DIQMTQSPSSLSASVGDRVTITCKSSQSLLNSGNQKSYLTWYQQKPGKAPKLLIYWASTLESGVPSRFSGSGSGTDYTLTISSLQPEDFATYYCQNAYFFPFTFGQGTKVEIKR :: 9.77
2. h5C9oad (antibody, V domains shown) VH: EVQLVESGGGLVQPGGSLRLSCAVSGYTFSMNWVRQAPGKGLEWVAWINMYTGEPTYADDFKGRFTISRDDSKNTLYLQMNSLRAEDTAVYYCARLYRGNSLDYWGQGTLVTVSS VL: DIQMTQSPSSLSASVGDRVTITCKSSQSLLNSGNQKSYLTWYQQKPGKAPKLLIYWASTLESGVPSRFSGSGSGTDYTLTISSLQPEDFATYYCQNAYYFPFTFGQGTKVEIK :: 9.76
3. h5C9oak (antibody, human IgG1, kappa, V domains shown) VH: EVQLVESGGGLVQPGGSLRLSCAVSGYTFSMNWVRQAPGKGLEWVAWINMYTGEPTYADDFKGRFTISRDDSKNTLYLQMNSLRAEDTAVYYCARSSRGNGFDYWGQGTLVTVSS VL: DIQMTQSPSSLSASVGDRVTITCKSSQSLLNSGNQKSYLTWYQQKPGKAPKLLIYWASTLESGVPSRFSGSGSGTDYTLTISSLQPEDFATYYCQNAYYFPFTFGQGTKVEIKR :: 9.79
4. Anti-CLDN 18.2-5C9ob (humanized antibody h5C9ob) (antibody, human IgG1, V domains shown) VH: EVQLVESGGGLVQPGGSLRLSCAVSGYTFSMNWVRQAPGKGLEWVAWINMYTGEPTYADDFKGRFTISRDDSKNTLYLQMNSLRAEDTAVYYCARLYNGNSLDYWGQGTLVTVSS VL: DIQMTQSPSSLSASVGDRVTITCKSSQSLLNSGNQKSYLTWYQQKPGKAPKLLIYWASTLESGVPSRFSGSGSGTDYTLTISSLQPEDFATYYCQNAYFFPFTFGQGTKVEIK :: 9.79
5. h5C9oaj (antibody, human IgG1, kappa, V domains shown) VH: EVQLVESGGGLVQPGGSLRLSCAVSGYTFSMNWVRQAPGKGLEWVAWINMYTGEPTYADDFKGRFTISRDDSKNTLYLQMNSLRAEDTAVYYCARLARGNSIDYWGQGTLVTVSS VL: DIQMTQSPSSLSASVGDRVTITCKSSQSLLNSGNQKSYLTWYQQKPGKAPKLLIYWASTLESGVPSRFSGSGSGTDYTLTISSLQPEDFATYYCQNAYYFPFTFGQGTKVEIKR :: 9.76
6. h5C9oaf (antibody, V domains shown) VH: EVQLVESGGGLVQPGGSLRLSCAVSGYTFSMNWVRQAPGKGLEWVAWINMYTGEPTYADDFKGRFTISRDDSKNTLYLQMNSLRAEDTAVYYCARLFNGNSLDYWGQGTLVTVSS VL: DIQMTQSPSSLSASVGDRVTITCKSSQSLLNSGNQKSYLTWYQQKPGKAPKLLIYWASTLESGVPSRFSGSGSGTDYTLTISSLQPEDFATYYCQNAYYFPFTFGQGTKVEIKR :: 9.79
